- target system: CRF1 receptor (Homo sapiens)
- Construct: endogenous in cells; host or cells: IMR-32 cells, transformed with 5'-bromo-2'-deoxyuridine; membrane preparation
- experiment: CRF1 receptor radioligand binding assay ([125I]-oCRF competition, IMR-32 cell membranes)
- stated conditions: Second Set of Examples (Table 2), [125I]-oCRF (100 pM), read-out: IC50
property measured: IC50 (nM)
Use nM as the unit, but write only the number.

Checklist item: IC50 tested on CRF1 receptor (Homo sapiens), entry CCCN(CCC(F)(F)F)Cc1sc(Nc2c(Cl)cc(Cl)cc2Cl)nc1C(F)(F)F , value?
144

Checklist item: IC50 tested on CRF1 receptor (Homo sapiens), entry CCCCCN(C)Cc1sc(Nc2c(Cl)cc(Cl)cc2Cl)nc1C(F)(F)F , value?
6750

Checklist item: IC50 tested on CRF1 receptor (Homo sapiens), entry CCCN(Cc1ccc2c(c1)OCO2)Cc1sc(Nc2c(Cl)cc(Cl)cc2Cl)nc1C(F)(F)F , value?
132

Next:
Checklist item: IC50 tested on CRF1 receptor (Homo sapiens), entry CCN(CC)Cc1sc(Nc2c(Cl)cc(Cl)cc2Cl)nc1C(F)(F)F , value?
475

Checklist item: IC50 tested on CRF1 receptor (Homo sapiens), entry C=C(C)CN(CC)Cc1sc(Nc2c(Cl)cc(Cl)cc2Cl)nc1C(F)(F)F , value?
493

Checklist item: IC50 tested on CRF1 receptor (Homo sapiens), entry CCN(CCOC)Cc1sc(Nc2c(Cl)cc(Cl)cc2Cl)nc1C(F)(F)F , value?
629

Checklist item: IC50 tested on CRF1 receptor (Homo sapiens), entry CCCCN(C)Cc1sc(Nc2c(Cl)cc(Cl)cc2Cl)nc1C(F)(F)F , value?
4580

Checklist item: IC50 tested on CRF1 receptor (Homo sapiens), entry C=C(C)CN(CC(=C)C)Cc1sc(Nc2c(Cl)cc(Cl)cc2Cl)nc1C(F)(F)F , value?
827

----------
- target system: CRF1 receptor (Homo sapiens, UniProt P34998)
- Construct: endogenous in cells; host or cells: IMR-32 cells, transformed with 5'-bromo-2'-deoxyuridine; membrane preparation
- Sequence (P34998 24-415): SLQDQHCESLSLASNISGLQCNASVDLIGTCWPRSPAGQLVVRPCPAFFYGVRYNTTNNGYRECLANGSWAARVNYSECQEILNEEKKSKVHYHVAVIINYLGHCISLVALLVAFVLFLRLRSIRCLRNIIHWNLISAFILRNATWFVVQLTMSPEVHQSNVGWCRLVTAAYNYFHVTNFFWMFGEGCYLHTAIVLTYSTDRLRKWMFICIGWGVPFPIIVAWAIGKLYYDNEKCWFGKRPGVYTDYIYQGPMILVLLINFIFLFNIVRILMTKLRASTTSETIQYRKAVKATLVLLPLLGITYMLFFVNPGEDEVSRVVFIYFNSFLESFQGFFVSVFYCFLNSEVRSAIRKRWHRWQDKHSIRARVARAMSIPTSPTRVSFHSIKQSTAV
- experiment: CRF1 receptor radioligand binding assay ([125I]-oCRF competition, IMR-32 cell membranes)
- stated conditions: Second Set of Examples (Table 2), [125I]-oCRF (100 pM), read-out: IC50
Quick list: IC50 per entry.
Use nM as the unit, but write only the number.

// solved cases for IC50 follow
Checklist item: IC50 tested on CRF1 receptor (Homo sapiens, UniProt P34998), entry COCCN(CCOC)Cc1sc(Nc2c(Cl)cc(Cl)cc2Cl)nc1C(F)(F)F [compound 55] , value?
6330

Checklist item: IC50 tested on CRF1 receptor (Homo sapiens, UniProt P34998), entry CC(C)CN(Cc1sc(Nc2c(Cl)cc(Cl)cc2Cl)nc1C(F)(F)F)CC(C)C [compound 38] , value?
683

Next:
Checklist item: IC50 tested on CRF1 receptor (Homo sapiens, UniProt P34998), entry CCN(Cc1ccncc1)Cc1sc(Nc2c(Cl)cc(Cl)cc2Cl)nc1C(F)(F)F [compound 34] , value?
511
